FYI, the data here is from patent US10590094B2.

- TEST_DETAILS: pharmacokinetics in male mice strain C57BL/6J
- Format: in vivo
- ASSAY_CONTEXT: mouse, plasma, oral; male C57BL/6J mice, 10 mg/kg p.o. vs 5 mg/kg i.v.
- Experimental: Pharmcokinetic parameters were determined for Example 3 in male mice strain C57BL/6J at an intraveneous (i.v.) dose of 5 mg/kg (5% DMSO in heterologous plasma, 2.5 ml/kg) and an oral dose (p.o) of 10 mg/kg (DMSO/0.5% HPMC (5:95), 5 ml/kg). […] Significant concentrations in the brain of treated mice (2-3 μM, 1000 ng compound/g brain) were detected 6 h post administration at an oral dose of 10 mg/kg.
PARAMETER_MEASURED: bioavailability

Indicate its recorded bioavailability; the molecule in question is Cc1nc(N(C)C(=O)Cc2ccc(-c3cc(F)ccc3F)cc2)sc1S(=N)(N)=O (stereo not shown)
94%
